Data origin: the DeepSol protein solubility set

assay: soluble on expression in E. coli; label from the status in PepcDB or PDB records
readout.kind: soluble on expression in E. coli

sequence.text | soluble on expression in E. coli
LTLPGIANLRRLRVDDVAIPKVEIVAVPVDIGKEDLVAVFREHGFSRLPVYRETLDQPLGLVLLKDLALQHGFNGNGSFDLKTLLRPLLYAPPSMPIGVLLQKMQRERVHMALVIDEYGGVDGLVTIEDLIETVIGEIEDEHDEVEGPLWTLEKPGVYMAQSRTPLDEFEAEIGLRLRREEEDEEIDTLGGLV | not soluble
MMWIPYNQGFHAGPKCLTVVFIYLLNMKVLRHIYRFLMELYGPQGWWPLLDRDTMTLRYHPGDYTPPSDDGDVFEVITGSILTQNTSWDSAASALRNLAAMDALKPHRILSLDDAELEAAIRCAGFYRQKVSYLREMAGFFISLEGSTPSRKELLKVRGVGPETADSVLLYAYRKPEFVVDAYTRRILTHLGLIAGDESYHRIKELFERSLEPDFRVFQEYHALIVRHGKSYYRGRVHGDGDPLTEKLEHHHHHH | not soluble
MGSDKIHHHHHHNLKDSDRIFTNLYGRHDYRLKGAMARGDWHKTKEIILKGSDWILGELKTSGLRGRGGAGFPSGMKWGFMNKPFDGRPKYLVVNADEGEPGTCKDREIMRHDPHKLIEGCLIGGVAMGARAAYIYIRGEFYNEACILQEAINEAYKAGYLGKDCLGTGYNFDVFVHRGAGAYICGEETALIESLEGKQGKPRLKPPFPADIGLFGCPTTVTNVETVAVAPTICRRGGDWFASFGRERNRGTKLFCISGQVNNPCTVEEEMSVPLKDLIERHCGGVIGGWDNLLAIIPGGSSVPLMPKN | not soluble
MIPVERHQQILALIAERGAVSINELTERLGVSHMTVRRDVQKLEQDGLLLSVSGGVRSPERLATEPSHQDKSVMFSQQKAAMGKLAAQHIPLNSCIYLDAGTTTLSLARELAERDDLLIVTNDFAIAAFLIESSQCRMIHTGGTLCRENQSCIGEAVAQALRNLFIDIAFISASSWSLRGLSTPNEDKVVVKRAAVEASRKRVLLCDTSKYGRIATHLATPLDVFDSIITDDGLPVAAKEALSKMGVEVLVAG | not soluble

Proceeding to the next sequence to report its soluble on expression in E. coli.
Q) Field request: soluble on expression in E. coli | item: MRLTDQKRESIVQAAIAEFGDRGFEITSMDRIAARAEVSKRTVYNHFPSKEELFAEMLQRLWNCAPPQSEVVYRPLVSLREQLLELLWGKMRNLTDSSFLDLARVVVGATIHSPERAQVWLARINEREETFSAWIRAAQKDGRLKPVDPGFAATQMHALLKSFAFWPQVTFNAALLTPQEQSNVVESALNMFLGWYEIPG
A) soluble

====

experiment: soluble on expression in E. coli; label from the status in PepcDB or PDB records

sequence.text | soluble on expression in E. coli
MSLSRPTKFRKVDFFPKSTCFIPLGKPKCEVEEIALKIEELEAIRLKDIKELNQEECAAKMEVSRQTFQNIIDSARKKIAIALTEGNAIAIGGGNFKSKFCKFKCLDCRNTYEINCENDKHMCPSCGSNNIVCNKKTGSCENLCKEGHHHHHH | soluble
MHHHHHHANASETNVGPMAPRVCVVGSVNMDLTFVVDALPRPGETVLAASLTRTPGGKGANQAVAAARAGAQVQFSGAFGDDPAAAQLRAHLRANAVGLDRTVTVPGPSGTAIIVVDASAENTVLVAPGANAHLTPVPSAVANCDVLLTQLEIPVATALAAARAAQSADAVVMVNASPAGQDRSSLQDLAAIADVVIANEHEANDWPSPPTHFVITLGVRGARYVGADGVFEVPAPTVTPVDTAGAGDVFAGVLAANWPRNPGSPAERLRALRRACAAGALATLVSGVGDCAPAAAAIDAALRANRHNGS | soluble

====

assay: soluble on expression in E. coli; label from the status in PepcDB or PDB records
readout.kind: soluble on expression in E. coli

sequence.text | data.value
MSAQRIQKVDILRYDPANDAEPHMQRFEVPFDETMSVLDAIGYVKDHLDKDLSYRWSCRMAICGSCGIMVNGVPKLACKSFLRDYPEGVKIEPLANFPIEKDLIVDMTPFIERLEAIKPYIIGNDRKPEDGTNLQTPEQMARYKQFAGCINCGLCYAACPQFGLNPEFLGPAALTLAHRYNLDSRDNGKAERMKLINGDNGAWGCTFVGYCSEVCPKHVDPAAAVNQGKVESSLDFVIAMLNPDGSPKKVEA | not soluble
MPYYVYLLACGKHGTLYLGVTNDLVRRVHEHRSKATPGFSEHYGVGRLVWFEIYHDAITAITREKQLKKWRRDWKVRLIENQNPDWVDLYPGICR | not soluble

====

assay: soluble on expression in E. coli; label from the status in PepcDB or PDB records
readout.kind: soluble on expression in E. coli

These recorded examples may help you get a feel for the data.
sequence.text | soluble on expression in E. coli
MRAGIYRRSAGQGAEEKPEAVRAGHRGGGERHHDHAHHDGEGEFVVREELLHGRSVRFRRRSERIDEHEHRQRDRGHAQPGADRGAPGRQRATTGDNVCDGTPGSPHRRVRRRRPAPAA | not soluble
MAHHHHHHHRSEQIAAVRRMVEAYNTGKTDDVADYIHPEYMNPGTLEFTSLRGPELFAINVAWVKKTFSEEARLEEVGIEERADWVRARLVLYGRHVGEMVGMAPTGRLFSGEQIHLLHFVDGKIHHHRDWPDYQGTYRQLGEPWPETEHRRP | soluble
MLGRGEGMRLEEARIAVDEALSAYRRCVEAEVEEYGPEYERVTFMEYEAPAPDPCAEAFLRLVEAVRAYEAAGGSREDLDLGRERKRVYEALDKG | soluble
MPTVPIPARKAATTFDTPSKHERIEVKPPITRFIRRAITRVFGVWSHISTQVVRQWGWYPRVEPYVGYGTGDYSRLICRTVYAPKHAQSGELIRGIRGMLAVPAPRTHVQASIDDMPLNTVQIGVSEVYDKVDRTRDLGSEYAISDSAGYLDLVAEHRLVPGIHRVSYSVANRKPVSANLYTIPASAKVGIISDVDDTIMITQAPVPWKAAYNLLFLDPKKKASVPGMSVLFTRIADLFPGAPFFYLSTSPWNVESSIRNFITDHGFPEGPLLLRDLDPRPKTFVPTGPQHKLEFAEQLMADFPDMKFILVGDDGQKDPTTYATIARRYPGRVLAIVIRELSPRESTGLASVTGLTSTQPTPVTDVPVFTGTTGSNILKTMLPYLKTVLRLEHHHHHH | not soluble
MGSDKIHHHHHHMIFINSRFLTQDVSGVQRYAEQMCRALQRLRNDLIFVAPRNIRLHDCAKALDVQHIGHATGHLWEQVDLPLHLKRKGNPLLVSISNTGPMFYANQIATHHDINYVRYPQSYTRLFRLAYRTITPILLSRARTLITGSSFSRGEIASFYGYAEDKVLVLPAAVSDDFTPRAVHRDQPDYLLAVSSPAAHKNFNRMIQAFLSLRGHADLQLHIVGAASSLFADPNLQRLACRDPRIRFLGRLSDAELIEQYQGASAFVFPSLYEGFGIPPLEAQACGCPVLAANAASIPEVLQASALYFDPLDVSHMAAAMHRVLSDAPLRQALRRQGLKNVQRFSWEISAQRLSQRIDALLEPAVQGKHHVAPESSPGKP | not soluble

Here is another sequence to look at.
Q) For the sequence shown here, MGSDKIHHHHHHMPKYLVFMDIDGTLLTDHQYVSERTRATIERFQKQDVLFYIATGRMYELAKIVRDKVNADVRLVTSNGAVFDGAQGRELTKLGGAAVELAYLIARRDNLPMMLFTPDMAYYTEQIPRFVARNAANFDADEVSIGYEEVKSFTQLATIEDQITNGVILSREDMSRLDSAREKLTNSKLLRLSSSNPNNIEMIPLNTDKGTAVKQIQREQHVDAAHTFVFGDGLNDVGMMAEADLSVAMGNALPQVKKVANYVTDMNYNDGLALFLEKYFAAHPLSTTK , give the reported soluble on expression in E. coli.
A) not soluble

====

assay: soluble on expression in E. coli; label from the status in PepcDB or PDB records
readout.kind: soluble on expression in E. coli

Worked set:
sequence.text | soluble on expression in E. coli
MGSDKIHHHHHHMKLVTISGPPSSGKTAVLAGVIRAMMASGLKVGALKYDCLATNDDDVFRAIGVPVQTGLSGNLCPDHYFVSNIEECLDWGIREGFDFLLSESAGLCNRCAPHIKGVLAVCVIDNLMGATTPKKIGPMLKYADIVVITKGDIVSQAEREVFAFQVRRANPRAKIMHVNGITGQGAGELASQFLLAPETTCLDGSRLRFSMPAALCSYCLGETRIGMEFQLGNVKKIKMSEEPAR | not soluble
MAYVPTLIANNVLNRAFAEKYRISPMKLQKILYFAAAEYQKNTGKSLFSERFETWQYGPVLRSVYSEFRPFSRDFITRFAKDAENQSHMINESADPALQRVLDTVWSATKGHSAVDLSRITHMENSAWDKSFQNEQPFLSSDHIAADDTYRRELGLTTA | not soluble
MRYPESLLKLTRALSRLPGIGPKTAQRLALHLAFHKEEAEALAEALEGIKRVRACRECGNLAEGELCPICQDEDRDRSLLAVVESVADLYALERSGEFRGLYHVLGGALNPLEGIGPKELNLEGLFRRLEGVEEVVLATSMTVEGEATALYLAEELKKRGVRVTRPAYGLPVGGSLEYADEVTLGRALEGRRPV | soluble
WAALHEGLNIRQAEVHGMSQRGGAVQSHLRISDQELFADLIGLGTGDLILSVEPLEALRYLPYLAPDGRIVTSLDPFVNMTGYPPMEEIEAELGKTGRPVLVHAADLAKDAGSARASNMVMLGAGAPFAGIAPSKLEASIEALFSTKGQEVVDINIRAFRKGLQL | not soluble
MSQIISTLNNIDLVTQDKVNLISNMQIQAKYENAEYKSFIDQLIDNLNTTRSIDIYNLFLSLNSEICLNLDTVDNISKIISSYLSILNTNFTRISPSESKQKNQLAEKGINKFLVTMDANFAQMQNQDKLLPNNIDSIIEIVQEVIIFFEKNNLNYNSDFKIQLNKTLRKIKSSLILKDQKNDTYSDKESINQVEATITDQKTIQGSEKWKTLIEKIEVLKALVESERIFETSIVYNDIQNLLVNFDPKEYFPEIFFPLYKKIAPFIGNIHKNIDYYSSSIQWSIAQKMYNIDYKSFLDTLEKMPENNFLNSSSDITKNFFYETSSEVEKTPIEEHKIIADTDAIKEEIVIKQRTNNKKNQNDPVEKISNKIDEDYFEDLFDI | not soluble

Then there is this sequence:
Q) Dear colleague, I am looking for the recorded soluble on expression in E. coli of the following sequence: MERQQQQQQQLRNLRDFLLVYNRMTELCFQRCVPSLHHRALDAEEEACLHSCAGKLIHSNHRLMAAYVQLMPALVQRRIADYEAASAVPSVAAEQPGVSPSGS
A) soluble
